molecular target: Voltage-gated potassium channel subunit beta-2 (Rattus norvegicus); experiment: KvBeta enzyme negative modulators, primary screen, biochemical, NADPH fluorescence (AID 622); conditions: recombinant KvBeta, 4-cyanobenzaldehyde reduction, at 10 µM, stronger effect = higher value;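 further: slope of raw intensity against log time taken from 70 to 1610 s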
observable: fluorescence slope
Number, no unit, nothing else.

Examples with answers:
> print(dat)
                           molecule  numericvalue
1  CCCCC(=O)Nc1c(O)c2ccccc2[nH]c1=O        -0.491
2    COc1ccc(Nc2cc(C)nc3ccccc23)cc1        -0.429

Identify measured fluorescence slope associated with CNc1nc(C)c(C#N)cc1C(C)=O -0.513

Identify measured fluorescence slope associated with O=C(O)CCNC(=O)c1ccccc1 -0.479

Identify measured fluorescence slope associated with COc1ccccc1C(CC(=O)Nc1nccs1)c1ccco1 (configuration not stated) -0.398

Identify measured fluorescence slope associated with CN1CCN(CCCN2c3ccccc3Sc3ccc(C(F)(F)F)cc32)CC1 -0.437

Identify measured fluorescence slope associated with COc1cccc(Cn2c(Oc3ccccc3)nc3c2c(=O)n(C)c(=O)n3C)c1 -0.369

----------
target: Voltage-gated potassium channel subunit beta-2 (Rattus norvegicus) (UniProt P62483); assay: KvBeta enzyme negative modulators, primary screen, biochemical, NADPH fluorescence (AID 622); settings: recombinant KvBeta, 4-cyanobenzaldehyde reduction, at 10 µM, stronger effect = higher value;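 further: slope of raw intensity against log time taken from 70 to 1610 s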
Sequence (P62483 whole entry, looked up): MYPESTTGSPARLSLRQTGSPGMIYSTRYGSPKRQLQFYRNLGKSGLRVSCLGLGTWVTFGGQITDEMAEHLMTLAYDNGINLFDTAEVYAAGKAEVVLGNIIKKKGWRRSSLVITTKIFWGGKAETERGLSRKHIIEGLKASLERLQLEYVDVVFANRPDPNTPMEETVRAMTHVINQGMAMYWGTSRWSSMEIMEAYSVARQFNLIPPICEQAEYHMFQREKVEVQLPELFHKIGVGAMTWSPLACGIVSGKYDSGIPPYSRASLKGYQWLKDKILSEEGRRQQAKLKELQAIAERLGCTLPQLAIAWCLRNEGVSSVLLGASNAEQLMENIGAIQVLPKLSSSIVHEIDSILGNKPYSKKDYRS
observable: fluorescence slope
Number, no unit, nothing else.

Examples with answers:
> print(dat)
                                   compound  numericvalue
1             Nc1ccc(S(=O)(=O)Nc2ncccn2)cc1          -0.5
2  CC(C)C1Cc2c(C#N)c(N)sc(=S)c2CO1 (stereo not given)        -0.291
3      O=C(NCCOCCOCCNC(=O)c1cccnc1)c1cccnc1        -0.514
4  CC1CN(c2oc(-c3ccccc3Cl)nc2C#N)CC(C)O1 (stereo not given)        -0.433

Consider the record given below.
Check Voltage-gated potassium channel subunit beta-2 (Rattus norvegicus) (UniProt P62483) data and give fluorescence slope for CC(=O)Oc1cccc2c1C(=O)c1c(OC(C)=O)cc(C(=O)O)cc1C2=O . -0.438

----------
test: inhibitors of TNFa-induced NFkB p65 translocation, primary screen, imaging, HUVEC, MLSMR starter and 10KST1 sets (AID 438); details: HUVEC TNFa-induced p65 nuclear translocation; at 2 µM, stronger effect = higher value, 0% TNFa-plus-vehicle, 100% no-TNFa wells;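 further: compound added about 3h40 before a 20 min TNFalpha stimulation; signal is the nuclear over cytoplasmic p65 intensity ratio per well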
observable: inhibition (%)
Your answer is read as %, so omit the unit and give the number.

Examples with answers:
> print(dat)
                                   molecule  observable  unitabbrev  numericvalue
1  CCN(CC)CCN1C(=O)C(=O)/C(=C(/O)c2ccc(C)cc2)C1c1cccnc1 (centres undefined)  inhibition           %          -0.5
2  CC(=O)N1CCN(c2nc(CC(C)C)c3c(c2C#N)CCC3)CC1  inhibition           %           0.5
3  COc1ccc(NC(=O)Nc2cccc(C(=O)N3CCOCC3)c2)cc1OC  inhibition           %             0

Identify measured inhibition associated with CC1CN(C2CCN(C(=O)c3ccccc3)CC2)CC(C)O1 (centres undefined) -25.6

Identify measured inhibition associated with Cc1ccc(-c2nn3c(-c4cccc(Cl)c4)nnc3s2)cc1 -6.6

Identify measured inhibition associated with CN(Cc1c(O)ccc2c1oc(=O)c1ccccc12)C1CCCCC1 -2.8

Identify measured inhibition associated with Cc1nc(/N=C(\N)Nc2ccccc2)nc2ccccc12 2.5

----------
Overview of recorded z-score for various compounds
test: DUSP6 inhibitors restoring Erk phosphorylation by chemical complementation, primary imaging in DUSP6-transfected HeLa (AID 609); settings: HeLa MKP-3 transfected, phospho-Erk imaging KS statistic; measured here: nuclear c-Myc green intensity z-score; at 10 µM; cells stimulated with TPA for 15 min
Number, no unit, nothing else.

Examples with answers:
> print(dat)
                                   compound  numericvalue
1      CCOc1cccc(-c2nnc3sc(-c4ccco4)nn23)c1          2.36
2  c1ccc(N2CCN(c3nc(-c4ccccn4)nc4ccccc34)CC2)cc1           1.7
3           CNC(=O)c1cc2c(ccc3ccccc32)oc1=N           1.1
4  CCOC(=O)c1ccc(N2C(=O)CC(Sc3nnc(C)s3)C2=O)cc1 (stereo not drawn)         -1.44
5  CCN1CCc2c(C#N)c(N3CCCCC3)nc(NCc3ccccc3)c2C1         -1.37
6       Cn1nnnc1-c1cc(Br)ccc1NC(=O)c1ccccc1          1.01

Identify measured z-score associated with COc1ccc(Cn2c(CCCO)nc3ccccc32)cc1OC 1.12

Identify measured z-score associated with COc1ccc(-c2cc(-c3ccccc3)n3ncnc3n2)cc1 1.44

Identify measured z-score associated with Cc1cc(C)nc(NC2=NCC(=O)N2c2ccccc2)n1 -0.204

Identify measured z-score associated with c1coc(CNc2ncnc3ccccc23)c1 -1.11

Identify measured z-score associated with COc1ccccc1N1CCN(CCOc2c(OC)cccc2OC)CC1 1.65

----------
Overview of recorded z-score for various compounds
assay: DUSP6 inhibitors restoring Erk phosphorylation by chemical complementation, primary imaging in DUSP6-transfected HeLa (AID 609); conditions: HeLa MKP-3 transfected, phospho-Erk imaging KS statistic; measured here: nuclear c-Myc green intensity z-score; at 10 µM; cells stimulated with TPA for 15 min
Number, no unit, nothing else.

> print(dat)
                                   compound  numericvalue
1  C[C@]12CC[C@@H]3c4ccc(O)cc4C(=O)C[C@H]3[C@@H]1CC[C@@H]2O         0.457

Identify measured z-score associated with COc1ccc(-n2c(=O)c3c4c(sc3n3c(C)nnc23)CC(C)CC4)cc1 (centres undefined) 0.383

Identify measured z-score associated with Cn1c(N2CCOCC2)nc2c1c(=O)n(Cc1ccc(Cl)c(Cl)c1)c(=O)n2C 0.0379

Identify measured z-score associated with CCc1nc2sc3c(c2c(=O)o1)CCCC3 -1.28

----------
Overview of recorded inhibition for various molecules
experiment: inhibitors of poly I:C-induced TLR3 signaling, primary screen, cell-based, poly I:C stimulus, luciferase, 10K MLSCN set (AID 602277); details: HEK293-TLR3 RL24 IRF3 luciferase reporter, at 10 µM, stronger effect = higher value
Your answer is read as %, so omit the unit and give the number.

Examples with answers:
> print(dat)
                                   molecule  observable  numericvalue
1                 O=C(O)/C=C/c1ccc(O)c(O)c1  inhibition          43.2
2  Cn1c2c(c(=O)n(C)c1=O)C(NC(=O)C(C)(C)C)(C(F)(F)F)C(=O)N2 (configuration not stated)  inhibition          16.6
3  Cn1c(=O)c2c(nc(Br)n2CCSc2ncccn2)n(C)c1=O  inhibition          6.81
4                   CC[N+](C)(C)Cc1ccccc1Br  inhibition          30.2

Identify measured inhibition associated with Oc1c(I)cc(I)c2cccnc12 30.5

Identify measured inhibition associated with C(=N\n1cnnc1)/c1cccnc1 -7.31

Identify measured inhibition associated with C[C@]12CC[C@@H]3c4ccc(O)cc4CC[C@H]3[C@@H]1CCC2=O 34.8

Identify measured inhibition associated with CCN(CC)CCCC1(CN)OCCc2ccccc21 (configuration not stated) 50.5

Identify measured inhibition associated with CCC(c1c(C)n(C)n(-c2ccccc2)c1=O)c1c(C)n(C)n(-c2ccccc2)c1=O 17.1

Identify measured inhibition associated with CCSC(SCC)[C@H](O)[C@@H](O)[C@H](O)[C@H](O)CO 28.3

Identify measured inhibition associated with CCN(CC)CCOC(=O)C(c1ccccc1)c1ccccc1 40.1

----------
experiment: inhibitors of E-selectin induction by TNFa, primary screen, imaging, HUVEC, immunofluorescence, MLSMR starter and 10KST1 sets (AID 487); details: HUVEC TNFalpha-induced E-selectin immunofluorescence imaging, at 2 µM; stronger effect = higher value;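 further: signal is fraction of cell area covered by stained E-selectin grains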
Respond with 1 for inhibition values of -70% and above, 0 for values below.

Does CN1CCN(CCCCC(=O)c2ccccc2)CC1 have a reported inhibition of at least -70%? 1

----------
target: Alpha-2C adrenergic receptor (Homo sapiens) (UniProt P18825); assay: modulators of alpha2C/GIRK thallium flux, primary screen, cell-based, HEK293 alpha2C/GIRK1/2 (AID 624); settings: thallium flux BTC fluorescence, at 10 µM, actives lie on both sides;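 further: slope of fluorescence ratio to pre-addition baseline per second over 15 to 24 s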
Sequence (P18825 whole entry, looked up): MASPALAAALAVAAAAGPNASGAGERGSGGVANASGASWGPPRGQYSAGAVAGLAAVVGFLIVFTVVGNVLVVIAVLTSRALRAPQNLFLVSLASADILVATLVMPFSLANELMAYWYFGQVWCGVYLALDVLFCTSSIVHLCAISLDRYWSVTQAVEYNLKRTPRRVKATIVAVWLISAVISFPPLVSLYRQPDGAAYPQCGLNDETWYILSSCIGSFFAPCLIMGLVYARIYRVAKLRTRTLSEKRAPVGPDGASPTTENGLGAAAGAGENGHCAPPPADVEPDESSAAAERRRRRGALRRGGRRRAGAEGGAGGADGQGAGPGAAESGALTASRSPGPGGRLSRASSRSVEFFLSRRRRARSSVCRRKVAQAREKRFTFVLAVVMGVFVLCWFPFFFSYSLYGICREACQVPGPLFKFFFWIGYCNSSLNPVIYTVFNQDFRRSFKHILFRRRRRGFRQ
Overview of recorded slope for various molecules
Number, no unit, nothing else.

> print(dat)
                                   molecule  observable  numericvalue
1  COc1ccccc1C1/C(=C(/O)c2ccc(C)cc2)C(=O)C(=O)N1Cc1ccco1 (centres undefined)       slope       0.00643
2          S=c1[nH]nc(-c2ccccc2)n1Cc1ccccc1       slope       0.00591

Identify measured slope associated with Cc1cccc(C)c1NC(=O)CSCC(=O)c1ccc(O)c(O)c1 0.00773

Identify measured slope associated with Cc1nc(Sc2cccn2C)c(C(F)(F)F)c(=O)[nH]1 0.00534

Identify measured slope associated with CC(C)c1cc(NCCN2CCOCC2)n2c(nc3ccccc32)c1C#N 0.00455

Identify measured slope associated with Cc1cnc(NC(=O)C2=C(O)c3ccccc3S(=O)(=O)N2C)s1 0.00455

Identify measured slope associated with COC1=CC(=O)CC(C)C12Oc1c(Cl)c(OC)cc(OC)c1C2=O (centres undefined) 0.00463

Identify measured slope associated with C[C@@H]1C[C@H](Nc2ccccc2)c2ccccc2N1C(=O)c1cccnc1 0.00503

Identify measured slope associated with CC(=N\O)/C(CN(C)C)=N/O 0.0061

Identify measured slope associated with CN(C)C/C(Cl)=C(\Cl)c1ccccc1 0.00503

Identify measured slope associated with Cc1cc(C)nc(CC(N)=O)n1 0.0046

Identify measured slope associated with COc1ccc(CCN(C)CCCC(C#N)(c2cc(OC)c(OC)c(OC)c2)C(C)C)cc1OC (centres undefined) 0.00502

Identify measured slope associated with Cc1cc(NCC2CCCO2)n2c(nc3ccccc32)c1C#N (centres undefined) 0.00569

Identify measured slope associated with CNCCCC12CCC(c3ccccc31)c1ccccc12 0.00463
